B1: RAB11A (parent)
chain: AVPTDEARAFAEKNGLSFIETSAL

- Variants of: B1
- assay.overview: protein stability index of a GFP-peptide fusion (GPS, HEK-293T) (PSI 1-6); higher = more stable;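 note: lentivirally expressed fusions sorted by FACS into six bins by GFP to DsRed ratio, PSI derived from sequencing read proportions per bin multiplied by bin number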
- condition.context: c terminus: a fixed tail appended
Quick rule for you: protein stability index at 2 or higher means YES, lower means NO.

Take a look at these entries with their results.
[[record]]
mutation_string = "G15F"
class_label = "NO"

[[record]]
mutation_string = "F10R"
class_label = "YES"

[[record]]
mutation_string = "G15Y"
class_label = "NO"


Please examine the following record next.
Does V2E have a reported protein stability index of at least 2?
YES

The measured values listed here are drawn from the supplement of paper PMC10567573.
